As shown below, each of these molecules has a reported log10 TGI value.
System: UACC-257 melanoma
Assay: NCI tumour cell line growth inhibition, 48 h
MEASURE: log10 TGI (log10 of the value in µM)

>>> observed_measurement("COc1cc2c3c(n(CCCN=[N+]=[N-])c(=O)c2cc1OC)-c1ccc(N)cc1C3=O")
0.17
>>> observed_measurement("C#CCn1c(=O)c(C)cn(/C(=C/C(=O)OCC)C(=O)OCC)c1=O")
1.46
>>> observed_measurement("COC(=O)C1=C(C(=O)Nc2cccnc2)C2OC1(C(Cc1ccccc1)Oc1ccccc1)C1OC21 (stereo not drawn)")
0.57
>>> observed_measurement("CC(C)Cc1ccc(C(C)/C=C2\\CCC(CN3CCOCC3)C2=O)cc1 (stereo not drawn)")
1.17
>>> observed_measurement("CN(C)c1ccc(/C=C2\\C[C@H]3[C@@H]4CCC5=CC(=O)CC[C@]5(C)[C@H]4CC[C@]3(C)C2=O)cc1")
1.83
>>> observed_measurement("C[CH2][Sn]1([CH2]C)[O]C2C(O)OC(CO)C(O)C2[O]1 (stereo not drawn)")
1.50
>>> observed_measurement("Oc1c(Cl)ccc2cccnc12")
1.93
>>> observed_measurement("O=C(/C=C/c1ccccc1Cl)c1ccc(O)cc1")
1.35
>>> observed_measurement("CCCCN(CCCC)c1cc(C(=O)CCCCCN)c2ccccc2n1")
0.54
>>> observed_measurement("Nc1cccc(-c2nc3sccn3c2-c2ccnc(NCCCNS(=O)(=O)c3ccc(C(F)(F)F)cc3)n2)c1")
1.70
>>> observed_measurement("O=C(/C=C/c1ccccc1O)c1ccccc1")
1.40
